# Subject of test: ERK5 (Homo sapiens)
# Sequence (Q13164 whole entry, species assumed): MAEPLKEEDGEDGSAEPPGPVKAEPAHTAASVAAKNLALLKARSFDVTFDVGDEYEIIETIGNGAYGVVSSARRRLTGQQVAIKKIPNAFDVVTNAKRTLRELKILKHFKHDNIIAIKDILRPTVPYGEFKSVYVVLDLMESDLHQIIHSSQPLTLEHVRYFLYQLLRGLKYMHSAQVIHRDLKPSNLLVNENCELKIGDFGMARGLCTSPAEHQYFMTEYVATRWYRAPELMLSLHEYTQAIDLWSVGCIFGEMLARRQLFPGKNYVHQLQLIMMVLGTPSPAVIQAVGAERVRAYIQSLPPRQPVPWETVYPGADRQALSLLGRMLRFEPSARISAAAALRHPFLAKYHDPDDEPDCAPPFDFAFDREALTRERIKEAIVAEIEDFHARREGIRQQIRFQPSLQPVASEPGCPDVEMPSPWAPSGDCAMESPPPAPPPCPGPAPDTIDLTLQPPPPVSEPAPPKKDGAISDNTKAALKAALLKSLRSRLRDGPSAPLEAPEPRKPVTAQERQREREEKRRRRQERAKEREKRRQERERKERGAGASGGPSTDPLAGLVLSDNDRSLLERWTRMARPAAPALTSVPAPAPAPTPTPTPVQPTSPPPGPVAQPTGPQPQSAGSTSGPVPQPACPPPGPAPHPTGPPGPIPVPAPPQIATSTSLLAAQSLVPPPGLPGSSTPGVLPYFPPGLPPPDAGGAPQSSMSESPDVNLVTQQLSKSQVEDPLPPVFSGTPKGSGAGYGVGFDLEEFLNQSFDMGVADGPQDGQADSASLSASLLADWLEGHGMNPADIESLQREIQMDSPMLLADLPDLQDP
# Protocol summary: Kinase profiling ERK5
# Type: biochemical
# Particulars: 100 micromolar inhibitor concentration; 100 is no change
Label rule, in plain words: residual kinase activity, ERK5 of 60 and up is y, under 60 is n.

Compound	Assigned category
COc1ccc2sc(NC(=O)c3cccc(NC(C)=O)c3)nc2c1	n
O=C(Nc1nc2ccc(O)cc2s1)c1cccnc1	n
CC(=O)Nc1nc2cc(C)ccc2s1	y
O=C(Nc1nc2ccc(O)cc2s1)c1ccccn1	n
CC(=O)NC(C)C(=O)Nc1nc2ccc(C(F)(F)F)cc2s1 (stereo not drawn)	n

Next item in the queue.
[in] Dear colleague, could you confirm whether O=C(Nc1nc2cc(O)ccc2s1)c1ccncc1 has residual kinase activity, ERK5 at or above 60?
[out] n
